Assignment: determine reported Activity for the given compounds.
system: Rhipicephalus sanguineus; test: Parasiticidal activity against Rhipicephalus sanguineus assessed as mortality after 24 hrs by brown dog tick assay; type: functional; set-up: concentration or dose not given beside the values
Note: a bare number is incomplete; add the unit.

Previously resolved entries follow.
CCO/N=C(\C)c1cc(Cl)ccc1NS(=O)(=O)C(F)(F)F = 85%
C#CCO/N=C(\CC)c1cc(Cl)ccc1NS(=O)(=O)C(F)(F)F = 100%
CO/N=C(\C)c1cc(Cl)ccc1NS(=O)(=O)C(F)(F)F = 93%
CC/C(=N\OCc1ccc(Br)cc1)c1cc(Cl)ccc1NS(=O)(=O)C(F)(F)F = 58%
CC/C(=N\OCCOC)c1cc(Cl)ccc1NS(=O)(=O)C(F)(F)F = 95%

Hi there! I need Activity for each item below, if you can.
1. C/C(=N\OCc1ccc(Cl)cc1)c1cc(Cl)ccc1NS(=O)(=O)C(F)(F)F
2. C/C(=N\OC1CCCCC1)c1cc(Cl)ccc1NS(=O)(=O)C(F)(F)F
3. CC(C)/C(=N\Oc1ccc(F)cc1)c1cc(Cl)ccc1NS(=O)(=O)C(F)(F)F
4. CC/C(=N\OCc1ccc(Cl)cc1)c1ccc(C(F)(F)F)cc1NS(=O)(=O)C(F)(F)F
5. C/C(=N\OCC1CCCCC1)c1cc(Cl)ccc1NS(=O)(=O)C(F)(F)F
6. CC/C(=N\OCC1CCCCC1)c1ccc(C(F)(F)F)cc1NS(=O)(=O)C(F)(F)F
7. CC/C(=N\OC(C)(C)C)c1cc(Cl)ccc1NS(=O)(=O)C(F)(F)F
8. CC/C(=N\Oc1ccc(Cl)cc1)c1cc(Cl)ccc1NS(=O)(=O)C(F)(F)F

["72%", "100%", "42%", "25%", "100%", "17%", "90%", "95%"]

Hi there! I need Activity for each item below, if you can.
1. C/C(=N\OCc1ccc(Cl)cc1)c1ccc(C(F)(F)F)cc1NS(=O)(=O)C(F)(F)F
2. C/C(=N\Oc1ccc(F)cc1)c1cc(Cl)ccc1NS(=O)(=O)C(F)(F)F
3. C/C(=N\OCC1CCCC1)c1cc(Cl)ccc1NS(=O)(=O)C(F)(F)F
4. CC/C(=N\OC1CCCCC1)c1cc(Cl)ccc1NS(=O)(=O)C(F)(F)F

1: 27%; 2: 100%; 3: 100%; 4: 100%
